Origin of values: patent US6914045B2

- Test system: Enterococcus sp.
- measurementProtocol: in vitro antibacterial evaluation, MIC by broth dilution
- Assay type: cell-based
- reportedConditions: broth dilution, 18 hours at 35° C.
Answer each item with its documented MIC Enterococcus faecalis (GC 6189).

Recorded MIC Enterococcus faecalis (GC 6189) of CN=C1N(C)CC(C(O)C2NC(=O)C(Cc3ccc(OC4OC(CO)C(OC5OC6COC7(OC6C(O)C5O)C5CC6CC(C5)CC7C6)C(O)C4O)cc3)NC(=O)C(C(C)c3ccccc3)NC(=O)CNC(=O)C(CO)NC(=O)C(C(O)C3CN(C)C(=NC)N3C3OC(CO)C(O)C(O)C3O)NC2=O)N1C (stereo not drawn) [Example 81] , please.
>128 µg/mL

Recorded MIC Enterococcus faecalis (GC 6189) of CC(c1ccccc1)C1NC(=O)CNC(=O)C(CO)NC(=O)C(C(O)C2CN(Cc3ccc(C(=O)O)cc3)C(=N)N2C2OC(CO)C(O)C(O)C2O)NC(=O)C(C(O)C2CNC(=N)N2)NC(=O)C(Cc2ccc(OC3OC(CO)C(OC4OC(CO)C(O)C(O)C4O)C(O)C3O)cc2)NC1=O (stereo not drawn) [Example 69] , please.
>128 µg/mL

Recorded MIC Enterococcus faecalis (GC 6189) of CC(c1ccccc1)C1NC(=O)CNC(=O)C(CO)NC(=O)C(C(O)C2CN(Cc3ccccc3)C(=N)N2C2OC(CO)C(O)C(O)C2O)NC(=O)C(C(O)C2CNC(=N)N2)NC(=O)C(Cc2ccc(OC3OC(CO)C(OC4OC(CO)C(O)C(O)C4O)C(O)C3O)cc2)NC1=O (stereo not drawn) [Example 59] , please.
>128 µg/mL

Recorded MIC Enterococcus faecalis (GC 6189) of CC(c1ccccc1)C1NC(=O)CNC(=O)C(CO)NC(=O)C(C(O)C2CNC(=N)N2C2OC(CO)C(O)C3OC(C)(C)OC32)NC(=O)C(C(O)C2CNC(=N)N2)NC(=O)C(Cc2ccc(OC3OC(CO)C(OC4OC(CO)C(O)C(O)C4O)C4OC(C)(C)OC34)cc2)NC1=O (stereo not drawn) [Example 229] , please.
>128 µg/mL

Recorded MIC Enterococcus faecalis (GC 6189) of CC(c1ccccc1)C1NC(=O)CNC(=O)C(CO)NC(=O)C(C(O)C2CNC(=N)N2C2OC(CO)C(O)C(O)C2O)NC(=O)C(C(O)C2CNC(=N)N2)NC(=O)C(Cc2ccc(OC3OC(CO)C(OC4OC5COC(c6ccccc6)OC5C(O)C4O)C(O)C3O)c(I)c2)NC1=O (stereo not drawn) [Example 196] , please.
>64 µg/mL

Recorded MIC Enterococcus faecalis (GC 6189) of N=C1NCC(C(O)C2NC(=O)C(CC3CCC(OC4OC(CO)C(OC5OC6COC7(OC6C(O)C5O)C5CC6CC(C5)CC7C6)C(O)C4O)CC3)NC(=O)C(CC3CCCCC3)NC(=O)CNC(=O)C(CO)NC(=O)C(C(O)C3CNC(=N)N3C3OC(CO)C(O)C(O)C3O)NC2=O)N1 (single isomer, unassigned) [Example 223] , please.
>64 µg/mL

###

Answer each item with its documented MIC Coagulase Negative Staphylococcus (GC 4547).
- Tested on: Staphylococcus sp.
- measurementProtocol: in vitro antibacterial evaluation, MIC by broth dilution
- Assay type: cell-based
- reportedConditions: broth dilution, 18 hours at 35° C.; strain GC 4547
- Excerpt: Methods for in vitro Antibacterial Evaluation (Table 1) […]

MIC Coagulase Negative Staphylococcus (GC 4547) of Cc1cc(C2OCC3OC(OC4C(CO)OC(Oc5ccc(CC6NC(=O)C(C(C)c7ccccc7)NC(=O)CNC(=O)C(CO)NC(=O)C(C(O)C7CNC(=N)N7C7OC(CO)C(O)C(O)C7O)NC(=O)C(C(O)C7CNC(=N)N7)NC6=O)cc5)C(O)C4O)C(O)C(O)C3O2)ccc1[N+](=O)[O-] (stereo not drawn) on Staphylococcus sp.?
4 µg/mL

MIC Coagulase Negative Staphylococcus (GC 4547) of COc1cccc(C2OCC3OC(OC4C(CO)OC(Oc5ccc(CC6NC(=O)C(C(C)c7ccccc7)NC(=O)CNC(=O)C(CO)NC(=O)C(C(O)C7CNC(=N)N7C7OC(CO)C(O)C(O)C7O)NC(=O)C(C(O)C7CNC(=N)N7)NC6=O)cc5)C(O)C4O)C(O)C(O)C3O2)c1 (stereo not drawn) on Staphylococcus sp.?
1 to 2 µg/mL

MIC Coagulase Negative Staphylococcus (GC 4547) of N=C1NCC(C(O)C2NC(=O)C(Cc3ccc(OC4OC(CO)C(OC5OC6COC7(OC6C(O)C5O)C5CC6CC(C5)CC7C6)C(O)C4O)cc3)NC(=O)C(CC3CCCCC3)NC(=O)CNC(=O)C(CO)NC(=O)C(C(O)C3CNC(=N)N3C3OC(CO)C(O)C(O)C3O)NC2=O)N1 (stereo not drawn) on Staphylococcus sp.?
0.5 to 2 µg/mL
